MEASURED TARGET: T1, 4H1401-AA
T1 chain: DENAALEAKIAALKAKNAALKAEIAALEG
MEASUREMENT PROTOCOL: two-hybrid library CCmax;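 note: natural log of median RNA to DNA barcode read ratio; higher means stronger binding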
CONDITIONS: mean of both orientations
ENDPOINT LABEL: interaction score
Field format: numeric only.

Recorded result, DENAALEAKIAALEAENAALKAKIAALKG [4H1310-AA] , interaction score: 1.11

Recorded result, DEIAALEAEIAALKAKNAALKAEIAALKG [4H122-AA] , interaction score: -1.2

Recorded result, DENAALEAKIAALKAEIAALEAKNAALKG [4H1352-AA] , interaction score: -1.64

Would you kindly look at the next entry?
Recorded result, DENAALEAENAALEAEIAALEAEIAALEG [4H1153-AA] , interaction score: -0.873

Data origin, for the record: paper PMC10397247
